tested_target: CYP3A4 (Homo sapiens)
run_description: Determination of compound Kiapp against recombinant CYP3A4 enzyme (BFC fluorescent substrate)
Type: biochemical
test_settings: Super. enzyme preparation, read-out: Kiapp (BFC, Super.)
measured_endpoint: Ki

# get_value(readout='Ki', item= "CCOc1cncc(NS(=O)(=O)c2ccccc2C(=O)NC2CCCC2)c1" )
47.7 nM

# get_value(readout='Ki', item= Cc1cncc(NS(=O)(=O)c2ccccc2C(=O)NC(C)C(C)C)c1 (stereo not drawn) )
51.6 nM

# get_value(readout='Ki', item= "CC(C)(CN1CCCC1)NC(=O)c1ccccc1S(=O)(=O)Nc1cccnc1" )
> 1000 nM

# get_value(readout='Ki', item= "COc1cncc(NS(=O)(=O)c2ccccc2C(=O)N[C@H]2C[C@@H]2c2ccccc2)c1" )
11.5 nM

# get_value(readout='Ki', item= "CCCCCNC(=O)c1ccccc1S(=O)(=O)N(C)c1cccnc1" )
92.2 nM

# get_value(readout='Ki', item= "COc1cncc(NS(=O)(=O)c2ccccc2C(=O)N(C)Cc2ccccc2F)c1" )
16.6 nM

# get_value(readout='Ki', item= "Cc1ccncc1NS(=O)(=O)c1ccccc1C(=O)N(C)CCC(C)C" )
34.3 nM

# get_value(readout='Ki', item= "CC(C)(C)OC(=O)N1CC2(CCN(C(=O)c3ccccc3S(=O)(=O)Nc3cccnc3)CC2)C1" )
558 nM

# get_value(readout='Ki', item= "O=C(NC1(CO)CCCC1)c1ccccc1S(=O)(=O)Nc1cccnc1" )
280 nM

* * *

Overview of reported pIC50 across a group of compounds:
tested_target: CYP3A4 (Homo sapiens, UniProt P08684)
Sequence (P08684 whole entry): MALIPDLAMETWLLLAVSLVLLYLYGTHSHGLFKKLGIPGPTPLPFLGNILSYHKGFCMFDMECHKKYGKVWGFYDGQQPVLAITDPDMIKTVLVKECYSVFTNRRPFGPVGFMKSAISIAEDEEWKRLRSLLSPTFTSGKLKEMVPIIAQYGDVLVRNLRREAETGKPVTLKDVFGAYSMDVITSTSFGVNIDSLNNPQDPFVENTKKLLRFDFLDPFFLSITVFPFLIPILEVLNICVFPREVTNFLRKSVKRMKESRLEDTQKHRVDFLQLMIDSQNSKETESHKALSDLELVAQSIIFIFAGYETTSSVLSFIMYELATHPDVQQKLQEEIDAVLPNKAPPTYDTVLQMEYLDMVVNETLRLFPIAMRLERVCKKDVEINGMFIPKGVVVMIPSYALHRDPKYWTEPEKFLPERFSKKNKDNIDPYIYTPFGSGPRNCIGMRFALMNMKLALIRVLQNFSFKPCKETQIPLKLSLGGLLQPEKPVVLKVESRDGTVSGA
run_description: Determination of IC50 against CYP3A4 by measurement of inhibition of midazolam metabolism (human liver microsomes, 1-hydroxymidazolam by LC-MS/MS)
Type: biochemical
Set-up: 0.1 mg/mL human liver microsomes
test_settings: 2 μM midazolam, 0.1 mg/mL human liver microsomes
pIC50 here: minus log base 10 of the concentration, concentration in moles per litre.

In the examples that follow, each entry is paired with its recorded pIC50.
>>> obs_value("CCOc1cncc(NS(=O)(=O)c2ccccc2C(=O)NCc2ccc(F)c(F)c2)c1")
8.40
>>> obs_value("Cc1ccccc1CCNC(=O)c1ccccc1S(=O)(=O)Nc1cnccc1C")
7.96

# get_value(readout='pIC50', item= "CCOc1ccncc1NS(=O)(=O)c1ccccc1C(=O)NCCOc1ccccc1" )
7.57

# get_value(readout='pIC50', item= "COc1cncc(NS(=O)(=O)c2ccccc2C(=O)NC(C(C)C)C(C)C)c1" )
8.40

# get_value(readout='pIC50', item= "COc1ccncc1NS(=O)(=O)c1ccccc1C(=O)NCCc1ccccc1Cl" )
8.22

# get_value(readout='pIC50', item= "CN(Cc1ccc(F)c(F)c1)C(=O)c1ccccc1S(=O)(=O)Nc1cncc(F)c1" )
7.31

# get_value(readout='pIC50', item= "COc1cncc(NS(=O)(=O)c2ccccc2C(=O)NCc2ccc(C)c(Cl)c2)c1" )
7.80

* * *

tested_target: CYP3A4 (Homo sapiens, UniProt P08684)
run_description: Determination of IC50 against CYP3A4 by measurement of inhibition of testosterone metabolism (human liver microsomes, 6-β-OH-testosterone by LC-MS/MS)
Assay type: biochemical
Design: 0.1 mg/mL human liver microsomes
test_settings: read-out: IC50 (Testo.)
Overview of reported IC50 across a group of compounds:
Numeric answer only, unit nM assumed.

# get_value(readout='IC50', item= "COc1ccc(CNC(=O)c2ccccc2S(=O)(=O)Nc2cccnc2)cc1" )
93.3

# get_value(readout='IC50', item= "CC(C)CCNC(=O)c1ccccc1S(=O)(=O)N(C)c1cccnc1" )
59

# get_value(readout='IC50', item= CCCCC(CO)NC(=O)c1ccccc1S(=O)(=O)Nc1cncc(OC)c1 (centres unmarked) )
48

# get_value(readout='IC50', item= "Cc1cncc(NS(=O)(=O)c2ccccc2C(=O)NC(C)(C)C)c1" )
61

* * *

tested_target: CYP3A4 (Homo sapiens, UniProt P08684)
run_description: Determination of compound Kiapp against recombinant CYP3A4 enzyme (BFC fluorescent substrate)
Assay type: biochemical
test_settings: Baculo. enzyme preparation, read-out: Kiapp (BFC, Baculo.)
// map Ki onto a label; ranges group A: < 40 nM; group B: ≥ 40 nM and < 200 nM; group C: ≥ 200 nM

>>> assigned_category("COc1ccncc1NS(=O)(=O)c1ccccc1C(=O)NCCc1ccccc1OC(F)(F)F")
"group A"
>>> assigned_category("Cc1cncc(NS(=O)(=O)c2ccccc2C(=O)NCc2cccc(F)c2)c1")
"group B"
>>> assigned_category("Cc1cncc(NS(=O)(=O)c2ccccc2C(=O)NCc2ccc(F)c(Cl)c2)c1")
"group A"
>>> assigned_category("COc1ccncc1NS(=O)(=O)c1ccccc1C(=O)N(C)Cc1ccc(F)cc1")
"group B"
>>> assigned_category("COc1cncc(NS(=O)(=O)c2ccccc2C(=O)NC(C)Cc2ccc(F)c(F)c2)c1 (stereo not drawn)")
"group A"
>>> assigned_category("CN(Cc1ccc(F)cc1)C(=O)c1ccccc1S(=O)(=O)Nc1cccnc1")
"group B"
>>> assigned_category("Cc1ccc(CNC(=O)c2ccccc2S(=O)(=O)Nc2cccnc2)cc1")
"group B"
>>> assigned_category("COc1ccncc1NS(=O)(=O)c1ccccc1C(=O)N(C)Cc1ccc(F)c(F)c1")
"group A"
>>> assigned_category("Cc1ccccc1CCNC(=O)c1ccccc1S(=O)(=O)N(C)c1cccnc1")
"group A"
>>> assigned_category("COc1ccncc1NS(=O)(=O)c1ccccc1C(=O)N[C@@H](C)C(C)C")
"group C"

Continue with the compound presented below.
For the record "O=C(NCc1cccc(OC(F)F)c1)c1ccccc1S(=O)(=O)Nc1cccnc1" , report the class its Ki corresponds to.
group C

* * *

tested_target: CYP3A4 (Homo sapiens)
run_description: Determination of IC50 against CYP3A4 by measurement of inhibition of testosterone metabolism (human liver microsomes, 6-β-OH-testosterone by LC-MS/MS)
Format: biochemical
Set-up: 0.1 mg/mL human liver microsomes
test_settings: read-out: IC50 (Testo.)
measured_endpoint: pIC50
pIC50 here: minus log base 10 of the concentration, concentration in moles per litre.

>>> obs_value("Cc1cncc(NS(=O)(=O)c2ccccc2C(=O)NCc2ccc(F)c(Cl)c2)c1")
8.00
>>> obs_value("COc1cncc(NS(=O)(=O)c2ccccc2C(=O)NCc2ccccc2OC)c1")
8.15
>>> obs_value("CCCCCN(C)C(=O)c1ccccc1S(=O)(=O)Nc1cccnc1")
7.52
>>> obs_value("COc1cncc(NS(=O)(=O)c2ccccc2C(=O)NCCOc2ccccc2)c1")
7.51

Test system CYP3A4 (Homo sapiens); read-out pIC50; what value for "COc1ccc(CNC(=O)c2ccccc2S(=O)(=O)Nc2cncc(C)c2)cc1" ?
7.40

* * *

tested_target: CYP3A4 (Homo sapiens, UniProt P08684)
run_description: Determination of compound Kiapp against recombinant CYP3A4 enzyme (BFC fluorescent substrate)
Assay type: biochemical
test_settings: Baculo. enzyme preparation, read-out: Kiapp (BFC, Baculo.)
Overview of reported pKi across a group of compounds:
pKi here: minus log base 10 of the concentration, concentration in moles per litre.

>>> obs_value("CCCCCNC(=O)c1ccccc1S(=O)(=O)Nc1cccnc1")
6.88

# get_value(readout='pKi', item= "CCCN(CC1CC1)C(=O)c1ccccc1S(=O)(=O)Nc1cncc(OC)c1" )
7.07

# get_value(readout='pKi', item= "Cc1cncc(NS(=O)(=O)c2ccccc2C(=O)NCc2ccc(F)c(F)c2)c1" )
8.00

# get_value(readout='pKi', item= "COc1cncc(NS(=O)(=O)c2ccc(OCCCN(C)C)cc2C(=O)N(C)C(C)C)c1" )
6.36

# get_value(readout='pKi', item= "COc1cncc(NS(=O)(=O)c2ccccc2C(=O)N2CCC(c3ccccc3)CC2)c1" )
7.23

* * *

Overview of reported pKi across a group of compounds:
tested_target: CYP3A4 (Homo sapiens)
run_description: Determination of compound Kiapp against recombinant CYP3A4 enzyme (BFC fluorescent substrate)
Format: biochemical
test_settings: Baculo. enzyme preparation, read-out: Kiapp (BFC, Baculo.)
pKi here: minus log base 10 of the concentration, concentration in moles per litre.

# get_value(readout='pKi', item= "CCCCCN(C)C(=O)c1ccccc1S(=O)(=O)Nc1cccnc1" )
6.48

* * *

tested_target: CYP3A4 (Homo sapiens, UniProt P08684)
run_description: Determination of IC50 against CYP3A4 by measurement of inhibition of testosterone metabolism (human liver microsomes, 6-β-OH-testosterone by LC-MS/MS)
Format: biochemical
Set-up: 0.1 mg/mL human liver microsomes
test_settings: read-out: IC50 (Testo.)
I'd appreciate it if you marked entries true when IC50 is lower than 60 nM and false when it is not.

Problem: For the compound COc1cncc(NS(=O)(=O)c2ccccc2C(=O)NC(C)(C)c2ccc(F)c(F)c2)c1 [Example 148] , is IC50 under 60 nM?
true

Problem: For the compound O=C(NCc1ccccc1F)c1ccccc1S(=O)(=O)Nc1cccnc1 [Example 5] , is IC50 under 60 nM?
false

Problem: For the compound COc1cncc(NS(=O)(=O)c2ccccc2C(=O)NCC(C)(C)C)c1 [Example 380] , is IC50 under 60 nM?
true

Problem: For the compound CCOCCNC(=O)c1ccccc1S(=O)(=O)Nc1cnccc1OCC [Example 218] , is IC50 under 60 nM?
false

Problem: For the compound CCCCNC(=O)c1ccccc1S(=O)(=O)Nc1cnccc1C [Example 260] , is IC50 under 60 nM?
false

Attribution: patent US7868026B2
